system: MDA-MB-231; experiment: NCI tumour cell line growth inhibition, 48 h
Calls of active or inactive are those of the source. No stated cut-off is given here; in the data, active = GI50 up to about 1.1 µM and inactive = higher.
Measured GI50, listed per entry for reference.

CCSc1n/c(=C\c2ccc(N(C)C)cc2)c2nnnn12 ... > 100 µM (inactive)

Prompt line: Supply recorded GI50 for NS(=O)(=O)c1ccc(NC(=O)c2ccc3nc4ccccc4c(Nc4ccc(S(N)(=O)=O)cc4)c3c2)cc1 here.
Response line: > 100 µM (inactive)

Prompt line: Supply recorded GI50 for C#CCN(C(=O)C(F)(F)F)C(/C=C\C(=O)OC)(C(=O)OCC)C(=O)OCC here.
Response line: > 100 µM (inactive)

Prompt line: Supply recorded GI50 for CCCNC(=O)Cn1c(-c2ccccc2)cc2ccccc21 here.
Response line: 32.7 µM (inactive)

Prompt line: Supply recorded GI50 for N#CC(c1ccnc(Cl)n1)c1nc2ccccc2s1 (stereo unspecified) here.
Response line: 2.91 µM (inactive)

Prompt line: Supply recorded GI50 for Cc1ccc(C(=O)C#Cc2cn(C3CC(O)C(CO)O3)c(=O)[nH]c2=O)cc1 (stereo unspecified) here.
Response line: > 100 µM (inactive)

----------
Measured GI50, listed per entry for reference.
system: KM12; test: NCI tumour cell line growth inhibition, 48 h
Active and inactive are the calls of the source. No stated cut-off is given here; in the data, active = GI50 up to about 1.1 µM and inactive = higher.

Prompt line: Supply recorded GI50 for C[C@]12CCC(=O)O[C@H]1CCCCO2 here.
Response line: > 100 µM (inactive)

Prompt line: Supply recorded GI50 for COc1ccc(/C=N\N(C)Cc2cccc3ccsc23)cc1 here.
Response line: > 100 µM (inactive)

Prompt line: Supply recorded GI50 for CC12CCCC3(CC(=O)C(C)(C)C3C(=O)C1)C2 (stereo unspecified) here.
Response line: > 100 µM (inactive)

Prompt line: Supply recorded GI50 for Nc1nc(N)c(CCCCc2ccc([N+](=O)[O-])cc2)c(N)n1 here.
Response line: 36.3 µM (inactive)

Prompt line: Supply recorded GI50 for CC(O)C(N/C=C1/N=C(c2ccccc2)OC1=O)C(=O)O (stereo unspecified) here.
Response line: > 100 µM (inactive)

Prompt line: Supply recorded GI50 for O=C1/C(=C/c2ccc(O)c(CN3CCCCC3)c2)CCC/C1=C\c1ccc(O)c(CN2CCCCC2)c1 here.
Response line: 4.12 µM (inactive)

Prompt line: Supply recorded GI50 for C[n+]1c2ccccc2cc2c(CNC(CCCNC(=N)N)C(=O)O)cccc21 (stereo unspecified) here.
Response line: 0.448 µM (active)

Prompt line: Supply recorded GI50 for C[C@H]1CC[C@H]([C@@H](C)[C@H]2[C@@H](O)C[C@H]3[C@@H]4CC[C@H]5C[C@@H](O)CC[C@]5(C)[C@H]4CC[C@]23C)NC1 here.
Response line: 15.2 µM (inactive)

Prompt line: Supply recorded GI50 for CC1(C)CC[C@]2(C(=O)O)CC[C@]3(C)C(=CC[C@@H]4[C@@]5(C)CC[C@H](OC6OC(CO)C(O)C(O)C6O)C(C)(C)[C@@H]5CC[C@]43C)[C@@H]2C1 (stereo partly specified) here.
Response line: 1.52 µM (inactive)

Prompt line: Supply recorded GI50 for COc1cc(/N=N\c2cccc(S(=O)(=O)O)c2)ccc1/N=N\c1ccc(/C=C/c2ccc(-n3on3-c3ccc(/C=C/c4ccc(/N=N/c5ccc(/N=N\c6cccc(S(=O)(=O)O)c6)cc5OC)cc4S(=O)(=O)O)c(S(=O)(=O)O)c3)cc2S(=O)(=O)O)c(S(=O)(=O)O)c1 here.
Response line: > 100 µM (inactive)

Prompt line: Supply recorded GI50 for COc1ccc(CNC2=N/C(=C\c3ccccc3Cl)C(=O)N2C)cc1 here.
Response line: 20.4 µM (inactive)

Prompt line: Supply recorded GI50 for O=C(O)C1CCCCC1c1c2ccc(=O)c(O)c-2oc2c(O)c(O)ccc12 (stereo unspecified) here.
Response line: 35.2 µM (inactive)

Prompt line: Supply recorded GI50 for CCSc1n/c(=C\c2ccc(N(C)C)cc2)c2nnnn12 here.
Response line: > 100 µM (inactive)

Prompt line: Supply recorded GI50 for O=C1[C@@H]2C(c3ccccc3F)=NO[C@@H]2C(=O)N1c1ccc(Cc2ccc(N3C(=O)[C@H]4C(c5ccccc5F)=NO[C@H]4C3=O)cc2)cc1 here.
Response line: > 100 µM (inactive)

Prompt line: Supply recorded GI50 for CCCCCCCCCCOCCOCCOCCOCCCCC(O)CCCCCCCC1=C[C@H](C)OC1=O (stereo partly specified) here.
Response line: 10.6 µM (inactive)

Prompt line: Supply recorded GI50 for N#Cc1c(-c2ccc([N+](=O)[O-])cc2)c(C#N)c(=O)n(NS(=O)(=O)c2ccccc2)c1-c1ccccc1 here.
Response line: > 100 µM (inactive)

----------
Measured GI50, listed per entry for reference.
test system: COLO 205; test: NCI tumour cell line growth inhibition, 48 h
The source made the active and inactive calls. Rule as the data show it: active = GI50 up to about 1.1 µM and inactive = higher.

The examples below pair each entry with its known result.
COC(=O)c1cc2c(cc1Cl)Sc1nnc(Nc3ccc(C)cc3)n1S2(=O)=O ... 4.84 µM (inactive)
COc1ccccc1CNC(=O)[C@H](Cc1ccc(O)cn1)NC(C)=O ... > 100 µM (inactive)
O=[N+]([O-])C=C(c1ccc(Cl)cc1)c1ccc(Cl)cc1 ... 3.85 µM (inactive)
O=C1Nc2ccc(Br)cc2/C1=N/Nc1ccccc1[N+](=O)[O-] ... 12.1 µM (inactive)
CCCCSC1=N/C(=C\c2ccco2)C(Cl)=N1 ... > 100 µM (inactive)

Moving on to another compound below.
Prompt line: Find the measured GI50 of C=CCCC(On1c(-c2ccc(Cl)cc2)csc1=S)c1ccccc1 (stereo unspecified) with COLO 205 as test system.
Response line: 22.5 µM (inactive)

----------
test system: A549; test: NCI tumour cell line growth inhibition, 48 h
The source made the active and inactive calls. Rule as the data show it: active = GI50 up to about 1.1 µM and inactive = higher.
Measured GI50, listed per entry for reference.

The examples below pair each entry with its known result.
COC1/C(=C\C(=O)OC(C)(C)C)c2ccccc2N1C(C)=O (centres undefined) ... > 100 µM (inactive)
Cc1ccc(C(=O)C#Cc2cn(C3CC(O)C(CO)O3)c(=O)[nH]c2=O)cc1 (centres undefined) ... > 100 µM (inactive)
COC(=O)c1ccccc1C1CN=NC12Cc1ccc(C)c(C)c1C2=O (centres undefined) ... 57.5 µM (inactive)
O=C1[C@@H]2C(c3ccncc3)=NO[C@@H]2C(=O)N1c1ccc(Cc2ccc(N3C(=O)[C@H]4C(c5ccncc5)=NO[C@H]4C3=O)cc2)cc1 ... > 100 µM (inactive)
OC(CCl)CN1CC[N+]2(CC1)CC[N+]1(CCN(CC(O)CCl)CC1)CC2 (centres undefined) [PROSPIDIUM CHLORIDE] ... > 50 µM (inactive)
COc1cc(Nc2cnc3ccc(C(F)(F)F)cc3n2)cc(OC)c1OC ... 20.4 µM (inactive)

Prompt line: Supply recorded GI50 for COc1ccc(-c2[nH]c(-c3ccc(OC)cc3)c(-c3ccccn3)c2-c2ccccn2)cc1 here.
Response line: 40.8 µM (inactive)

Prompt line: Supply recorded GI50 for Cn1c(C(O)C2(c3cccnc3)SCCCS2)cc2ccccc21 (centres undefined) here.
Response line: > 100 µM (inactive)

Prompt line: Supply recorded GI50 for CC(=O)c1c2c(cc3c1CC1(C3)Cc3ccc4c(c3C1=O)CCC4)CCC2 (centres undefined) here.
Response line: 21.5 µM (inactive)

----------
Measured GI50, listed per entry for reference.
test system: HOP-18; test: NCI tumour cell line growth inhibition, 48 h
Calls of active or inactive are those of the source. Rule as the data show it: active = GI50 up to about 1.1 µM and inactive = higher.

The examples below pair each entry with its known result.
C=C=C(CC)C(C(=O)OC)N(CC)CC (stereo not given) ... > 100 µM (inactive)
O=C(CC1=Nc2nnc(CCCCCCCc3nnc4n3C(=O)C(CC(=O)c3ccccc3)=N4)n2C1=O)c1ccccc1 ... > 100 µM (inactive)
Cc1ccc(C)c(NC(=O)CCC(=O)CC(=O)C(C)(C)C)c1 ... > 100 µM (inactive)
O=C(NC12CC3CC(CC(C3)C1)C2)C(=O)c1c[nH]c2ccc(Br)cc12 ... 19.1 µM (inactive)

Prompt line: Supply recorded GI50 for COC(=O)C12C3C4C5C3(C#N)C1C5(C(=O)OC)C42C(=O)N(C(C)C)C(C)C (stereo not given) here.
Response line: > 100 µM (inactive)

Prompt line: Supply recorded GI50 for CNS(=O)(=O)NNS(=O)(=O)c1ccc(Br)cc1 here.
Response line: 2.64 µM (inactive)

Prompt line: Supply recorded GI50 for CN(C)[C@@H]1C(O)=C(C(=O)NCNc2nc3[nH]nnc3c(=O)[nH]2)C(=O)[C@@]2(O)C(O)=C3C(=O)c4c(O)cccc4[C@@](C)(O)[C@H]3C[C@@H]12 here.
Response line: 2.19 µM (inactive)

Prompt line: Supply recorded GI50 for O=C1[C@@H]2C(c3ccccc3F)=NO[C@@H]2C(=O)N1c1ccc(Cc2ccc(N3C(=O)[C@H]4C(c5ccccc5F)=NO[C@H]4C3=O)cc2)cc1 here.
Response line: > 100 µM (inactive)

Prompt line: Supply recorded GI50 for O=[N+]([O-])c1cccnc1S(=O)(=O)c1ccccc1 here.
Response line: 12.9 µM (inactive)

Prompt line: Supply recorded GI50 for CC(C)/C=C1\CCC(CN(C)C)C1=O (stereo not given) here.
Response line: 3.36 µM (inactive)
